Test system: P388 leukemia ip, CD2F1 mice, survival T/C
Test: NCI In Vivo Anticancer Drug Screen. Data for tumor model P388 Leukemia (intraperitoneal) in CD2F1 (CDF1) mice
Conditions: endpoint: median survival time; dose: 50.0 mg/kg/injection; schedule: Q01DX009 (ip); vehicle: water; higher = longer survival
Toxic doses and inconclusive results are not listed.
observable: T/C

Prompt: Name the recorded T/C for CC1CN(Cc2ccccc2O)CC(C)N1 (stereo not drawn) .
Completion: 91 % of control

Prompt: Name the recorded T/C for CN(C)CCCNc1cccc2c1C(=O)c1cccc(NCCCN(C)C)c1C2=O .
Completion: 100 % of control

Prompt: Name the recorded T/C for CN(C)C(CC(N)=O)C(=O)O (stereo not drawn) .
Completion: 101 % of control

Prompt: Name the recorded T/C for O=[N+]([O-])c1cccn2nc(C3OC(CO)C(O)C3O)nc12 (stereo not drawn) .
Completion: 98 % of control

Prompt: Name the recorded T/C for COc1cccc(CN2CCCNCC2)c1 .
Completion: 101 % of control

Prompt: Name the recorded T/C for ClCCc1cnc[nH]1 .
Completion: 110 % of control

Prompt: Name the recorded T/C for COc1cccc(C(O)c2ccncc2)c1OC (stereo not drawn) .
Completion: 90 % of control

Prompt: Name the recorded T/C for CN(CNC(N)=O)N=O .
Completion: 99 % of control

* * *

Tested on: P388 leukemia ip, CD2F1 mice, survival T/C
Experiment: NCI In Vivo Anticancer Drug Screen. Data for tumor model P388 Leukemia (intraperitoneal) in CD2F1 (CDF1) mice
Details: endpoint: median survival time; dose: 100.0 mg/kg/injection; schedule: Q01DX001 (ip); vehicle: saline; higher = longer survival
Toxic doses and inconclusive results are not listed.
observable: T/C

Prompt: Name the recorded T/C for C=C1C(=O)O[C@@H]2[C@H]3C(C)=CC[C@H]3C(C)=CC[C@@H]12 .
Completion: 106 % of control

Prompt: Name the recorded T/C for OCc1nccn1Cc1ccccc1 .
Completion: 95 % of control

Prompt: Name the recorded T/C for CN(C)c1nc(N(C)C)nc(N(C)C=O)n1 .
Completion: 99 % of control

Prompt: Name the recorded T/C for N#CCCCCCCCCCCCCCC1C=CCC1 (stereo not drawn) .
Completion: 106 % of control

Prompt: Name the recorded T/C for CCOC(=O)C(Cc1ccccc1)P(=O)(OCC)OCC (stereo not drawn) .
Completion: 95 % of control

Prompt: Name the recorded T/C for COc1ccc(S(=O)(=O)c2cnc(N)nc2N)cc1 .
Completion: 97 % of control

Prompt: Name the recorded T/C for Cn1c(=O)c2c(nc(CF)n2C)n(C)c1=O .
Completion: 92 % of control

Prompt: Name the recorded T/C for N#CCc1c(C2(c3ccncc3)OCCO2)[nH]c2ccccc12 .
Completion: 104 % of control

* * *

Tested on: P388 leukemia ip, CD2F1 mice, survival T/C
Test: NCI In Vivo Anticancer Drug Screen. Data for tumor model P388 Leukemia (intraperitoneal) in CD2F1 (CDF1) mice
Details: endpoint: median survival time; dose: 100.0 mg/kg/injection; schedule: Q01DX005 (ip); vehicle: saline with Tween-80; higher = longer survival
Inconclusive results and toxic doses are left out.
Would you mind telling me the reported T/C of each entry?

Prompt: Value wanted: T/C (P388 leukemia ip, CD2F1 mice, survival T/C) of entry COC(=O)N1C=Cc2ccccc2C1(C#N)C(=S)SC (stereo not drawn)
Completion: 93 % of control

Prompt: Value wanted: T/C (P388 leukemia ip, CD2F1 mice, survival T/C) of entry CC(C)C(Nc1ncnc2nc[nH]c12)C(=O)O (stereo not drawn)
Completion: 102 % of control

Prompt: Value wanted: T/C (P388 leukemia ip, CD2F1 mice, survival T/C) of entry CCOC(=O)c1c(-c2ccccc2)csc1NC(=O)CN1CCCCC1
Completion: 114 % of control

Prompt: Value wanted: T/C (P388 leukemia ip, CD2F1 mice, survival T/C) of entry CCOc1c(C)cc(C(C)c2cc3c(cc2OC)OCO3)cc1C (stereo not drawn)
Completion: 99 % of control

Prompt: Value wanted: T/C (P388 leukemia ip, CD2F1 mice, survival T/C) of entry CCCC(=O)N(C)O
Completion: 108 % of control

Prompt: Value wanted: T/C (P388 leukemia ip, CD2F1 mice, survival T/C) of entry Cc1cccc(C(C)(C)C)c1NC(=O)CCc1nnc(N)n1N
Completion: 100 % of control

Prompt: Value wanted: T/C (P388 leukemia ip, CD2F1 mice, survival T/C) of entry O=C(c1ccc(Cl)cc1)c1cnc2nc(-c3ccccc3)c(-c3ccccc3)nn12
Completion: 113 % of control

Prompt: Value wanted: T/C (P388 leukemia ip, CD2F1 mice, survival T/C) of entry C[C@@H](O)[C@H](NSc1ccccc1[N+](=O)[O-])C(=O)NCCc1nc(-c2nc(C(=O)NCCCBr)cs2)cs1
Completion: 97 % of control

* * *

Test system: P388 leukemia ip, CD2F1 mice, survival T/C
Experiment: NCI In Vivo Anticancer Drug Screen. Data for tumor model P388 Leukemia (intraperitoneal) in CD2F1 (CDF1) mice
Conditions: endpoint: median survival time; dose: 400.0 mg/kg/injection; schedule: Q01DX009 (ip); vehicle: Klucel (hydroxypropylcellulose) (HPC); higher = longer survival
Inconclusive results and toxic doses are left out.
observable: T/C

Prompt: Name the recorded T/C for ICC1(CI)COC1 .
Completion: 99 % of control

Prompt: Name the recorded T/C for O=C(Nc1ncnc2nc[nH]c12)c1ccccc1 .
Completion: 112 % of control

Prompt: Name the recorded T/C for CCOC(=O)/C(=C/Nc1ccc(O)cc1)NC(=O)c1ccccc1 .
Completion: 89 % of control

Prompt: Name the recorded T/C for S=C1SCN(C2CCCCC2)CN1C1CCCCC1 .
Completion: 107 % of control

* * *

Test system: P388 leukemia ip, CD2F1 mice, survival T/C
Assay: NCI In Vivo Anticancer Drug Screen. Data for tumor model P388 Leukemia (intraperitoneal) in CD2F1 (CDF1) mice
Details: endpoint: median survival time; dose: 12.5 mg/kg/injection; schedule: Q01DX009 (ip); vehicle: distilled water + Tween-80
Toxic doses and inconclusive results are not listed. The calls were made as follows: active = survival T/C of 150% or more; inactive = T/C below 125% in these data.
// one of Yes (active), No (inactive), no free text

Prompt: Name the outcome recorded for CCOC(=O)C(=O)C1Cc2c(C)cc3cnc(OCC)cc3c2C1=O (centres undefined) in the assay.
Completion: No

Prompt: Name the outcome recorded for CN(C(=O)c1cc2c(cc1Br)OCO2)c1cccc2ccccc12 in the assay.
Completion: No

Prompt: Name the outcome recorded for COC1OC2COC(c3ccccc3)OC2C(O)[CH]1[Hg][O]C(C)=O (centres undefined) in the assay.
Completion: No

Prompt: Name the outcome recorded for CNC(=O)OCc1c(COC(=O)NC)c(-c2ccc(SC)cc2)n(C)c1C in the assay.
Completion: Yes

* * *

Test system: P388 leukemia ip, CD2F1 mice, survival T/C
Test: NCI In Vivo Anticancer Drug Screen. Data for tumor model P388 Leukemia (intraperitoneal) in CD2F1 (CDF1) mice
Conditions: endpoint: median survival time; dose: 30.0 mg/kg/injection; schedule: Q01DX005 (ip); vehicle: saline with Tween-80
Toxic doses and inconclusive results are not listed. Rule for the calls: active = survival T/C of 150% or more; inactive = T/C below 125% in these data.
// one of active, inactive, no free text

Prompt: Name the outcome recorded for COC1OC(C(C)O)C2OC(C)(C)OC12 (configuration not stated) in the assay.
Completion: inactive

Prompt: Name the outcome recorded for C[C@]12CCC(=O)N[C@@H]1CC[C@@H]1[C@@H]2CC[C@]2(C)[C@@H](OC(=O)COc3ccc(N(CCCl)CCCl)cc3)CC[C@@H]12 in the assay.
Completion: active

Prompt: Name the outcome recorded for C=CCOc1cc2c(cc1C/C=C/c1cc(OC)c(OC)c(OC)c1)OCO2 in the assay.
Completion: inactive

Prompt: Name the outcome recorded for O=C(Cc1nc2ccc(Cl)cc2nc1CC(=O)c1ccccc1)c1ccccc1 in the assay.
Completion: inactive

Prompt: Name the outcome recorded for O=C1SC(=NC2CCCCC2)N(C2CCCCC2)/C1=C1\C(=O)SC(=NC2CCCCC2)N1C1CCCCC1 in the assay.
Completion: inactive

Prompt: Name the outcome recorded for CC(=O)OC1CN(C)CC=C1c1ccccc1 (configuration not stated) in the assay.
Completion: inactive

Prompt: Name the outcome recorded for CCCCn1/c(=N/N=Nc2ccccc2)sc2ccccc21 in the assay.
Completion: inactive

* * *

Test system: P388 leukemia ip, CD2F1 mice, survival T/C
Assay: NCI In Vivo Anticancer Drug Screen. Data for tumor model P388 Leukemia (intraperitoneal) in CD2F1 (CDF1) mice
Settings: endpoint: median survival time; dose: 100.0 mg/kg/injection; schedule: Q01DX001 (ip); vehicle: Klucel (hydroxypropylcellulose) (HPC); higher = longer survival
Inconclusive results and toxic doses are left out.
observable: T/C

Prompt: Value wanted: T/C (P388 leukemia ip, CD2F1 mice, survival T/C) of entry OCC(O)C(O)C(O)C(O)c1nnc2n[nH]c(=S)n2n1 (stereo not drawn)
Completion: 100 % of control

Prompt: Value wanted: T/C (P388 leukemia ip, CD2F1 mice, survival T/C) of entry CCn1c(Cl)c(/C=C2/N=C(c3ccccc3)OC2=O)c2ccccc21
Completion: 92 % of control

Prompt: Value wanted: T/C (P388 leukemia ip, CD2F1 mice, survival T/C) of entry CCOC(=O)CC/C(=C/c1cccc2cc(OC)ccc12)[N+](=O)[O-]
Completion: 101 % of control
